assay: Toxicity liver stage against HepG2, at 10uM; type: cell-based; parameters: test concentration 10 uM, cell line HepG2-A16-CD81EGFP; conditions: human, HepG2-A16-CD81EGFP cells; read-out: INHIBITION
Consider the following compounds and their measured cytotoxicity at 10 µM readings.
Kindly answer with a numeric value in %, unit omitted.

// below: answered compounds
Task: State the recorded cytotoxicity at 10 µM for this entry: O=C(NCCO)c1cc(-c2ccc3c(c2)CCO3)n[nH]1
Result: -11.9

Task: Name the recorded cytotoxicity at 10 µM for CCn1cc2c(n1)C(COC)CN(C(=O)COc1ccccc1C)C2 (configuration not stated) .
Result: 0.719

Task: Given CN1C[C@@H]2CN(C(=O)NCc3ccccc3)CCC[C@]2(C(=O)O)C1 , state its recorded cytotoxicity at 10 µM.
Result: 9.55

Task: Value lookup for cytotoxicity at 10 µM; key = CC1(CO)COC(Cc2ccc(Cl)cc2)=N1 (configuration not stated)
Result: 12.6

Task: Reported cytotoxicity at 10 µM, compound Cc1cc(C(=O)NCCc2c(C)nn(C)c2C)nc(N2CCCCC2)n1 : ____
Result: -16

Task: What does the data say about its cytotoxicity at 10 µM? Entry: COc1cccc(-c2cc(NCCO)nc3[nH]ccc23)n1
Result: 4.46

More entries:
Task: Value lookup for cytotoxicity at 10 µM; key = CS(=O)(=O)CCN(CC1CCCO1)C1CCCC1 (configuration not stated)
Result: 4.4

Task: Look at this compound and give its reported cytotoxicity at 10 µM. CNc1snc(C)c1C(=O)N1CCCC(n2ccnc2)C1 (configuration not stated)
Result: -13.8

Task: Need cytotoxicity at 10 µM, item CCOc1ccc(NC(=O)NCCS(=O)(=O)CC)cc1C
Result: -3
